Origin of values: patent US20190359687A1

- target entity: T1, human glycophorin A on human red blood cells or red blood cell membranes (human, UniProt P02724 20-150)
- T1 construct: whole, on cells; also called hRBC; human RBC membranes
- T1 sequence (looked up): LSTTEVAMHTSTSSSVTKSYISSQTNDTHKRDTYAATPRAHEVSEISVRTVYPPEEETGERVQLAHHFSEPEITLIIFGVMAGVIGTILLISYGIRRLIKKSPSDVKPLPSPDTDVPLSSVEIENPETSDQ
- test description: scFv 7 ug/ml on intact human RBC, unbound scFv by ELISA; pre-dilution
Measured percentage of input scFv antibody bound, listed per entry for reference.

- binder: "TPP-7782 scFv with C-terminal 6xHIS tag (scFv) scFv: DIQLTQSPSFLSASVGDRVTITCRASSSVRYIYWFQQKPGKAPKLLIYATSFRQSGVPSRFSGSGSGTEYTLTISSLQPEDFATYYCHQRNSFPYTFGQGTKLEIKGGGGSGGGGSGGGGSGGGGSEVQLVQSGAEVKKPGASVKVSCKASGYTFTTYTIHWVRQAPGQGLEWMGYINPSSGYTRYNPKFKGRVTMTRDKSTSTAYMELRSLRSDDTAVYYCQTGTRDYWGQGTTVTVSSHHHHHH"
  percentage of input scFv antibody bound: "92%"
- binder: "TPP-7794 scFv with C-terminal 6xHIS tag (scFv) scFv: DIQLTQSPSFLSASVGDRVTITCRASSSVRYIYWFQQKPGKAPKLLIYATSFRQSGVPSRFSGSGSGTEYTLTISSLQPEDFATYYCHQRNSFPYTFGQGTKLEIKGGGGSGGGGSGGGGSGGGGSEVQLVQSGAEVKKPGASVKVSCKASGYTFTTYAIHWVRQAPGQGLEWMGYINPSSGYTRYNPKFKHRVTMTRDKSTSTAYMELRSLRSDDTAVYYCWTGTRDYWGQGTTVTVSSHHHHHH"
  percentage of input scFv antibody bound: "85%"
- binder: "TPP-7783 scFv with C-terminal 6xHIS tag (scFv) scFv: DIQLTQSPSFLSASVGDRVTITCRASSSVRYIYWFQQKPGKAPKLLIYATSFRRSGVPSRFSGSGSGTEYTLTISSLQPEDFATYYCHQRNSFPYTFGQGTKLEIKGGGGSGGGGSGGGGSGGGGSEVQLVQSGAEVKKPGASVKVSCKASGYTFTTYAIHWVRQAPGQGLEWMGYINPSSGYTRYNPKFKHRVTMTRDKSTSTAYMELRSLRSDDTAVYYCWTGTRDYWGQGTTVTVSSHHHHHH"
  percentage of input scFv antibody bound: "94%"
- binder: "TPP-7793 scFv with C-terminal 6xHIS tag (scFv) scFv: DIQLTQSPSFLSASVGDRVTITCRASSSVSYIYWFQQKPGKAPKLLIYATSTLQSGVPSRFSGSGSGTEYTLTISSLQPEDFATYYCHQRNSFPYTFGQGTKLEIKGGGGSGGGGSGGGGSGGGGSEVQLVQSGAEVKKPGASVKVSCKASGYTFTRYTIHWVRQAPGQGLEWMGYINPSSGYTRYNPKFKGRVTMTRDKSTSTAYMELRSLRSDDTAVYYCWTGTRDYWGQGTTVTVSSHHHHHH"
  percentage of input scFv antibody bound: "92%"
- binder: "TPP-7795 scFv with C-terminal 6xHIS tag (scFv) scFv: DIQLTQSPSFLSASVGDRVTITCRASSSVSYIYWFQQKPGKAPKLLIYATSFLQSGVPSRFSGSGSGTEYTLTISSLQPEDFATYYCHQRNSFPYTFGQGTKLEIKGGGGSGGGGSGGGGSGGGGSEVQLVQSGAEVKKPGASVKVSCKASGYTFTTYTIHWVRQAPGQGLEWMGYINPKSGWTRYNPKFKGRVTMTRDKSTSTAYMELRSLRSDDTAVYYCQTGTRDYWGQGTTVTVSSHHHHHH"
  percentage of input scFv antibody bound: "100%"
